All values here come from ChEMBL document CHEMBL5653610.

Assay: Protein binding in orally dosed rat plasma after 2 hrs by UPLC-MS analysis
Assay type: ADME, organism-based
Conditions: route po, read-out: PPB (converted)
recorded-metric: fraction unbound at 2 h
No unit in the answer, please; the number alone is enough.

The molecule identified as `COCCOc1nc(-c2ccc(Cl)nc2)nc2c1CN(C(=O)c1ncn3ccccc13)CC2` registered its fraction unbound at 2 h at 0.018

###

Assay: Total drug level in Wistar Hannover rat plasma at 3 mg/kg, po after 2 hrs by UPLC-MS analysis
Format: ADME, organism-based
recorded-metric: concentration at 2 h (nM)
Give the value, in units of nM, as a plain number.

The molecule identified as COCCOc1nc(-c2ccc(Cl)nc2)nc2c1CN(C(=O)c1ncn3ccccc13)CC2 [THPP-1] registered its concentration at 2 h at 745
